# Tested on: RAW264.7
# methodDescription: Antiinflammatory activity in mouse RAW 264.7 cells assessed as inhibition of LPS-induced nitric oxide production measured after 48 hrs by Griess reagent assay
# Assay type: functional, cell-based
# experimentalSetup: RAW264.7, 48 h
Entries annotated with measured IC50
Show the value, then the unit it is measured in.

Some solved cases for reference:
compound	testedSystem	resultType	measured
C=Cc1c(C)c(O)cc2c1CCc1c-2ccc(O)c1C	RAW264.7	IC50	4.9 µM
C=Cc1c(C)c(O)cc2c1ccc1c(C)c(O)ccc12	RAW264.7	IC50	3.2 µM

Data request: Look up IC50: COc1cc(O)c2c(c1)CCc1cc(O)ccc1-2 [LUSIANTHRIDIN]
Data returned: 4.6 µM

Data request: What value of IC50 has been recorded for this entry: `C=Cc1c(C)c(O)cc2c1-c1ccc(O)c(C)c1CC2`
Data returned: 3.1 µM

---

# methodDescription: Inhibition of elastase (unknown origin)
# Parameters: species or system Homo sapiens
// reported pIC50 per item
Note on pIC50: it is the negative log10 of concentration, concentration in mol/L.

compound	resultType	measured
C=Cc1c(C)c(O)cc2c1CCc1c-2ccc(O)c1C	pIC50	5.26

Please look at the following compound next.
Data request: Which pIC50 reading was recorded for the compound O=c1cc(N2CCOCC2)oc2c(-c3ccccc3)cccc12 [LY-294002] ?
Data returned: 5.32

---

# System: RAW264.7
# methodDescription: Antiinflammatory activity in mouse RAW264.7 cells assessed as reduction in LPS-induced nitric oxide production
# Type: functional, cell-based
# experimentalSetup: Mus musculus, RAW264.7
pIC50 reference
Scale for pIC50: -log10 of concentration given in mol/L; no unit attached.

Solved entries (count: 2):
compound	pIC50
C=Cc1cc(O)cc2ccc3c(C)c(O)ccc3c12	4.90
C=Cc1c(C)c(O)cc2ccc3c(C)c(O)ccc3c12	4.81

Data request: // pIC50 lookup, key: `COc1cc2cc(O)cc(OC)c2c2c(O)cccc12`
Data returned: 4.62

Data request: Entry under review: `COc1c(O)cc2c3c1COc1cc(O)c(Cc4ccc(O)cc4)c(c1-3)CC2` . Reported pIC50?
Data returned: 4.68

---

# Tested on: RAW264.7
# methodDescription: Antiinflammatory activity in mouse RAW264.7 cells assessed as reduction in LPS-induced nitric oxide production
# Assay type: functional, cell-based
# experimentalSetup: Mus musculus, RAW264.7
Here, each record is paired with measured pIC50 data.
Please note pIC50 is a logarithmic value: minus log10 of concentration in mol/L. Answer with that number alone.

compound	pIC50
C=Cc1cc(O)cc2c1-c1cc(-c3c(O)cc(C=C)c4c3ccc3c(C)c(O)ccc34)c(O)c(C)c1CC2	5.13
Cc1c(O)ccc2c1CCc1cc(O)cc(CO)c1-2	4.80

Data request: Write down the reported pIC50 of COC(C)c1cc(O)cc2ccc3c(C)c(O)ccc3c12 (stereo unspecified) , test system: RAW264.7.
Data returned: 4.95

Data request: Find pIC50 (RAW264.7) for the entry `C=Cc1cc(O)cc2c1-c1ccc(O)c(C)c1CC2`
Data returned: 4.82

Data request: Lab request: please report pIC50 under test system RAW264.7 for `C=Cc1ccc(CO)c2c1-c1ccc(O)c(C)c1CC2`
Data returned: 4.84

Data request: Param readout= pIC50; system= RAW264.7; entry= `O=c1c(O)c(-c2ccc(O)c(O)c2)oc2cc(O)cc(O)c12` ; returns value.
Data returned: 5.18
